Biological target: T1, human IL-33 (R&D Systems, #3625-IL-010/CF) (human, UniProt O95760 112-270)
T1 construct: Commercial recombinant protein; also called hIL-33; interleukin-33
T1 sequence (looked up): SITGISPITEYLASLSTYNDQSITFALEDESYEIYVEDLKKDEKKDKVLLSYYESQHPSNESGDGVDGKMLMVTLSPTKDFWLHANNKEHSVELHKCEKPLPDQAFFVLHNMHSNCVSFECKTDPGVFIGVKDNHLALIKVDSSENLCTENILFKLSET
Assay: SPR 25C, pH6.0 chase, mAb captured
property: t½ (min)
Numbers only here, please. The scale is min.

A selection of reference data follows.
H4H9665P (antibody, human IgG4, V domains shown, Human IgG4 Fc (H4H)) VH: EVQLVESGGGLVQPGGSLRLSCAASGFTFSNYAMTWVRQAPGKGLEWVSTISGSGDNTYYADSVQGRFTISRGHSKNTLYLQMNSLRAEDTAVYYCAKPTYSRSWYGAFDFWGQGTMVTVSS VL: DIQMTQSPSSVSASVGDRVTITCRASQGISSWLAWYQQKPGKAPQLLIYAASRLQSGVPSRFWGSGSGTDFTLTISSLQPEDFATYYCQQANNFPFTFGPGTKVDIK = 5
H4H9667P (antibody, human IgG4, V domains shown, Human IgG4 Fc (H4H)) VH: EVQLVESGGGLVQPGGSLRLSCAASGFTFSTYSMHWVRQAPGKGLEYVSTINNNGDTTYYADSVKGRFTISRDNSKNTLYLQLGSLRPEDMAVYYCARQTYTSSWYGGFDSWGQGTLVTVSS VL: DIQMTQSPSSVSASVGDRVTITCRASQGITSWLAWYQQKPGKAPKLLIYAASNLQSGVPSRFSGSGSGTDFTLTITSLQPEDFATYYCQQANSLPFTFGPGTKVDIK = 20

Now take the following binder into account.
binder H4H9640P (antibody, human IgG4, V domains shown, Human IgG4 Fc (H4H)) VH: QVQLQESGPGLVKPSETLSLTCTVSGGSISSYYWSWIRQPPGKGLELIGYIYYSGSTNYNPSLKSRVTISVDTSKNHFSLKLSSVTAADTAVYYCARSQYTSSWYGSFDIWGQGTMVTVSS VL: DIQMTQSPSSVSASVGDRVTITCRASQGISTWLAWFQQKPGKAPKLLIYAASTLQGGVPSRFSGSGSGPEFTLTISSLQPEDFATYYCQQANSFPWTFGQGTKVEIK , t½ observed: 18
